B1: LINE1-full (parent)
chain: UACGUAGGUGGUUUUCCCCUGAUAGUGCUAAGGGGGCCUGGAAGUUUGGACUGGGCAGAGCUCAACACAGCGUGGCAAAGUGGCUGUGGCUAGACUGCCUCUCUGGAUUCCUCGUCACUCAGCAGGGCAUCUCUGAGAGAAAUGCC

variants of: B1; assay: self-cleavage, relative activity (ratio to wild type); higher = more cleavage; in vitro, sequencing; the parent is a self-cleaving ribozyme
readout_name: self-cleavage

May I ask what self-cleavage has been recorded for UACGUAGGUGGUUUUCCCCUGAUAGUGCUAAGGGGGCCUGGGAGUUUGGACUGGGCAGAGCUCAACACAGCGUGGCAAAGCGGCUGUGGCUAGACUGCCUCUCUGGAUUCCUCGUCACUCAGCAGGGCAUCUCUGAGAGAAAUGCC ? 1.55

Consider next the variant UACGUAGGUGGUUUUCCCCUGAUUGUGCUAAGGGGGCCUGGAAGUUUGGACUGGGCAGAGCUCAACACAGCGUGGCAAAGUGGCUGUGGCUAGACUGCCUCUCUGGAUUCCCCGUCACUCAGCAGGGCAUCUCUGAGAGAAAUGCC in the same way. 1.28

Consider next the variant UACGUAGGUGGUCUUCCCCUGAUAGUGCUAAGGGGGCCUGGAAGUUUGGACUGGGCAGAGCUCAACGCAGCGUGGCAAAGUGGCUGUGGCUAGACUGCCUCUCUGGAUUCCUCGUCACUCAGCAGGGCAUCUCUGAGAGAAAUGCC in the same way. 0.71

Consider next the variant UACGUAGGUGGUUUUCCCCUGAUAGUGCUAAGGGGGCCUGGAAGUUUGGACUGGGCAGAGCUCAACACAGCGUGGUAAAGUGGCUGUGGCUAGACUGCUUCUCUGGAUUCCUCGUCACUCAGCAGGGCAUCUCUGAGAGAAAUGCC in the same way. 0.99

Consider next the variant CACGUAGGUGGUUUUCCCCUGAUAGUGCUAAGGGGGCCUGGAAGUUUGGACUGGGCAGAGCUCAACACAGCGUGGCAAAGUGGCUGUGGCUAGACUGCCUCUCUGGAUUCCUCGUCACUCAGCAGGGCAUCUCUGAGUGAAAUGCC in the same way. 0.57

Consider next the variant UACGUAGGUGGUUUUCCCCUGAUAGUGCUAAGGGGGCCUGGAAGUUUGGACUGGGCAGGGCUCAACUCAGCGUGGCAAAGUGGCUGUGGCUAGACUGCCUCUCUGGAUUCCUCGUCACUCAGCAGGGCAUCUCUGAGAGAAAUGCC in the same way. 0.06

Consider next the variant UACGUAAGUGGUUUUCCCCUGAUAGUGCUAAGGGGGCCUGGAAGUUUGGACUGGGCAGAGCUCAACACAGCGUGGCAAAGUGGCUGUGGCUAGACUGCCUCUCUGGAUCCCUCGUCACUCAGCAGGGCAUCUCUGAGAGAAAUGCC in the same way. 1.19

Consider next the variant UACGUAGGUGGUUUUCCCCUGAUAGUGCCAAGGGGGCCUGGAAGUUUGGACUGGGCAGAGCUCAACACAGCGUGGCAAAGUGGCUGUGGCUAGACUGCCUCUCUGGAUUCCUCCUCACUCAGCAGGGCAUCUCUGAGAGAAAUGCC in the same way. 1.49

Consider next the variant UACGUAGGUGGUUUUCCCCUGAUAGUGCUAAGGGGGCCUGGAAGUUUGGAUUGGGCAGAGCUCAACACAGCGUGGCAAAGUGGCUGUGGCUAGGCUGCCUCUCUGGAUUCCUCGUCACUCAGCAGGGCAUCUCUGAGAGAAAUGCC in the same way. 0.22

Consider next the variant UACGUAGGUGGUUUUCCCCUGAUAGUGCUAAGGGGGCCUGGAAGUUUGGACUGGGCAGAGCUCAACACAGCGUGGCAACGUGGCUGUGGCUAGACUGCCCCUCUGGAUUCCUCGUCACUCAGCAGGGCAUCUCUGAGAGAAAUGCC in the same way. 2.76

Consider next the variant CACGUAGGUGGUUUUCCCCUGAUAGUGCUAAGGGGGCCUGGAAGUUUAGACUGGGCAGAGCUCAACACAGCGUGGCAAAGUGGCUGUGGCUAGACUGCCUCUCUGGAUUCCUCGUCACUCAGCAGGGCAUCUCUGAGAGAAAUGCC in the same way. 0.9

Consider next the variant UACGUAGGUGGUUCUCCCCUGAUAGUGCUAAGGGGGCCUGGAAGUUUGGACUGGGCAGAGCUCAACACAGCGUGGCAAAGUGGCUGUGGCUAGACUGCCUCUCUGGACUCCUCGUCACUCAGCAGGGCAUCUCUGAGAGAAAUGCC in the same way. 1.44

Consider next the variant UACGUAGGUGGUUUUCCCCUGAUGGUGCUAAGGGGGCCUGGAAGUUUGGACUGGGCAGAGCUCAACACAGCGUGGCAAAGUGGCUGUGGCUAGACUGCCUCUCUGGAUUCCACGUCACUCAGCAGGGCAUCUCUGAGAGAAAUGCC in the same way. 1.51

Consider next the variant UACGUAGGUGGUUUUCCCCUGAUAGUGCUAAGGGGGCCUGGAAGUUCGGACUGGGCAGAGCUCAACACAGCGUGGCAAAGUGGCUGUGGCUAGACUGCCUCUCUGGAUUCCUAGUCACUCAGCAGGGCAUCUCUGAGAGAAAUGCC in the same way. 1.78

Consider next the variant UACGUAGGUGGUUUUCCCCUGAUAGUGCUCAGGGGGCCUGGAAGUUUGGACUGGGCAGAGCUCAACACAGCGUGGCAAAGUGGCUGUGGCUAGACCGCCUCUCUGGAUUCCUCGUCACUCAGCAGGGCAUCUCUGAGAGAAAUGCC in the same way. 0.39

Consider next the variant UACGUAGGCGGUUUUCCCCUGAUAGUGCUAAGGGGGCCUGGAAGUUUGGCCUGGGCAGAGCUCAACACAGCGUGGCAAAGUGGCUGUGGCUAGACUGCCUCUCUGGAUUCCUCGUCACUCAGCAGGGCAUCUCUGAGAGAAAUGCC in the same way. 1.25

Consider next the variant UACGUAGGUGGUUCUCCCCUGAUAGUGCUAAGGGGGCCUGGAAGUUUGGAGUGGGCAGAGCUCAACACAGCGUGGCAAAGUGGCUGUGGCUAGACUGCCUCUCUGGAUUCCUCGUCACUCAGCAGGGCAUCUCUGAGAGAAAUGCC in the same way. 1.84

Consider next the variant UACGUAGGUGGAUUUCCCCUGAUAGUGCUAAGGGGGCCUGGAAGUUUGGACUGGGCAGAGCUCAACACAGCGUGGCAAAGUGGCUGUGGCUAGACUGCCUCUCUGGAUUCCUCGUCACUCAGCAGGGCAUCUCAGAGAGAAAUGCC in the same way. 0.6

Consider next the variant UACGUAGGUGGUUUUCCCCUGAUAGUGCUAAGGGGGCCUGGAAGUUUGGACUGGGCGGAGCUCAGCACAGCGUGGCAAAGUGGCUGUGGCUAGACUGCCUCUCUGGAUUCCUCGUCACUCAGCAGGGCAUCUCUGAGAGAAAUGCC in the same way. 0.1

Consider next the variant UACGUAGGUGGUUUUCCCCUGAUAGUGCUAAGGUGGCCUGGAAGUUUGGACUGGGCAGAGCUCAACACAGCGUGGCAAAGUGGCUGUGGCUGGACUGCCUCUCUGGAUUCCUCGUCACUCAGCAGGGCAUCUCUGAGAGAAAUGCC in the same way. 0.14

Consider next the variant UACGUAGGUGGCAUUCCCCUGAUAGUGCUAAGGGGGCCUGGAAGUUUGGACUGGGCAGAGCUCAACACAGCGUGGCAAAGUGGCUGUGGCUAGACUGCCUCUCUGGAUUCCUCGUCACUCAGCAGGGCAUCUCUGAGAGAAAUGCC in the same way. 0.27

Consider next the variant UACGUAGGUGGUUUUCCCCUGAUAGUGCUAAGGGGGCCUGGAAGUUUGGACUGGGCAGAGCUCAACAUAGCGUGGCAAAGUGGCUGUGGCUAGACUGCCUCUCUGGAUUCCUCGACACUCAGCAGGGCAUCUCUGAGAGAAAUGCC in the same way. 0.2
